target: BTK (Homo sapiens, UniProt Q06187)
Sequence (Q06187 whole entry): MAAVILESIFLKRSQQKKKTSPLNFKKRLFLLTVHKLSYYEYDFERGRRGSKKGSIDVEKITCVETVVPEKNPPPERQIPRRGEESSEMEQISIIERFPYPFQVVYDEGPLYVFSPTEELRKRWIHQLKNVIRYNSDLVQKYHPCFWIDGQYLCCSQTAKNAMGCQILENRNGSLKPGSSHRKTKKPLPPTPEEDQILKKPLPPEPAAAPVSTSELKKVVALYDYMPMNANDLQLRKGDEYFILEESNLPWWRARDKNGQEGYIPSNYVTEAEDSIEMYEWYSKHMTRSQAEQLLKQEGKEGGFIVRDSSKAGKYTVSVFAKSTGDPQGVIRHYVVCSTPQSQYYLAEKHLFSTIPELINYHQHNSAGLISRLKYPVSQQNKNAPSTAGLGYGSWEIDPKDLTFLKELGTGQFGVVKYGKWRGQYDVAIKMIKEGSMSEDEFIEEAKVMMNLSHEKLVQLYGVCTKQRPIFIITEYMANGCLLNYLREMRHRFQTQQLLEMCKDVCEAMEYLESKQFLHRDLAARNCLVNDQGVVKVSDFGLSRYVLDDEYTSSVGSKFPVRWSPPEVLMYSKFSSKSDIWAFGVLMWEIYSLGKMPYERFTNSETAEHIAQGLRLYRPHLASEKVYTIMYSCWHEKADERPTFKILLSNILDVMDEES
pIC50: −log10 of the molar value.
reportedEndpoint: pIC50

Cn1ccc(NCC(=O)NC2CCCN(c3ncnc4[nH]ccc34)C2)n1 (stereo not drawn) [Example 80]; 5.00 to 6.00

Q: Requested field: pIC50. Item: O=C(CNc1cccc(-n2cncn2)c1)N[C@@H]1CCCN(c2ncnc3[nH]ccc23)C1 [Example 395]
Result: 5.00 to 6.00

Q: Requested field: pIC50. Item: CC(C)(C)c1ccccc1NCC(=O)N[C@@H]1CCCN(c2ncnc3[nH]ccc23)C1 [Example 416]
Result: 5.00 to 6.00

Q: Requested field: pIC50. Item: O=C(N[C@@H]1CCCN(c2ncnc3[nH]ccc23)C1)C(CC(F)(F)F)Nc1ccccc1 (stereo partly drawn) [Example 123]
Result: 5.00 to 6.00

Q: Requested field: pIC50. Item: CCOc1ccccc1NCC(=O)N[C@@H]1CCCN(c2ncnc3[nH]ccc23)C1 [Example 310]
Result: 6.00 to 7.00

Q: Requested field: pIC50. Item: COc1ccc(Cl)cc1NCC(=O)N[C@@H]1CCCN(c2ncnc3[nH]ccc23)C1 [Example 312]
Result: 6.00 to 7.00
